# System: SK-MEL-5 melanoma
# protocol_notes: NCI-60 one-dose screen, 48 h
# condition_label: 10 µM unless noted
# Method: Growth inhibition of the SK-MEL-5 human tumor cell line is measured as a screen for anti-cancer activity. Cells are grown in 96 well plates and exposed to the test compound for 48 hours. Compounds are tested at a single concentration, which is 10^-5 M for most compounds. The reported endpoint is percent growth (GI% or GIPRCNT), where numbers from 0 - 100% represent growth inhibition, and numbers from -100% - 0 represent cell death. For example, a value of 40 represents 60% growth inhibition. […]
The panel holds about 83,000 compounds, 20% with a hit somewhere; the sample as a whole holds those more often. The source made the active and inactive calls. The calls were made as follows: active = growth percent below 10; inactive = the rest.
Respond with a class label; see t for active, f for inactive

*Q* Each compound tested received a call. Report the one for Nc1c(C(=O)Nc2cccc(Cl)c2)sc2ncc(Br)cc12 .
*A* f

*Q* For CC(=O)Nc1ccc(Cl)cc1Cl then?
*A* f

*Q* For Oc1ccc(CCCCCCc2ccc(O)cc2)cc1 then?
*A* f

*Q* For COc1ccc(C2CC(c3cccc(Nc4ccnc5cc(Cl)ccc45)c3)=NN2c2ccc(Cl)cc2)cc1 (stereo unspecified) then?
*A* f

*Q* For O=c1c2sc3ccccc3c2nnn1-c1ccc(F)c(Cl)c1 then?
*A* f

*Q* For F then?
*A* t

*Q* For COc1cc(C2C=C(C)N=C3SC=NN32)cc(OC)c1OC (stereo unspecified) then?
*A* f

*Q* For COc1ccc(/C(=C\c2cc(OC)c(OC)c(OC)c2)C(=O)N2CCNCC2)cc1 then?
*A* f

*Q* For Fc1ccc(-c2nnc(N3CCOCC3)c3ccccc23)cc1 then?
*A* f

*Q* For COc1cc(OC)cc(-c2n/c(=C\c3c(O)[nH]c4ccc(Cl)cc34)cc3c2=Nc2ccccc2-3)c1 then?
*A* f

*Q* For O=C1/C(=C\c2cccn2Cc2ccc(Cl)cc2)c2ccccc2N1c1c(Cl)cccc1Cl then?
*A* f

*Q* For COc1ccc2nc(C)cc(Nc3ccccc3O)c2c1 then?
*A* f

*Q* For CC(=O)N[C@@H](CCC(N)=O)C(=O)O then?
*A* f

*Q* For CCCc1cc2c(cc1CN(Cc1cc3c(cc1CCC)OCO3)C(=N)OCC)OCO2 then?
*A* f

*Q* For O=C1Nc2ccccc2/C1=C/c1c[nH]c2ccccc12 then?
*A* f

*Q* For CCCCc1n(Cc2ccc3ccccc3n2)cc[n+]1Cc1ccc2ccccc2n1 then?
*A* t
